src = PubChem BioAssay AID651809

- assay.name: Cholera quorum inducers, V. cholerae BH1578 lux reporter, luminescence, confirmatory dose response (AID 651809)
- experimental.parameters: V. cholerae BH1578 lux reporter, luminescence, 6 h; at 35 µM (top of the series)
Examples of compounds with documented activation follow.
endpoint: activation (%)

[[record]]
smiles_entry = "CCn1nnc(NCc2ccc(C(C)C)cc2)n1"
result_value = 0.061

[[record]]
smiles_entry = "Cn1nnc(NCc2ccccc2)n1"
result_value = -0.02

[[record]]
smiles_entry = "O=C(Cc1cccc(F)c1)NC1CCCC1"
result_value = 0.009

[[record]]
smiles_entry = "O=C(Cc1ccccc1OC(F)(F)F)NC1CCCC1"
result_value = 0.011

[[record]]
smiles_entry = "COc1ccc(CC(=O)NC2CCCC2)cc1"
result_value = 2.06

[[record]]
smiles_entry = "O=C(Cc1ccc(-c2cccnc2)cc1)NC1CCCC1"
result_value = 15.8

[[record]]
smiles_entry = "CS(=O)(=O)c1ccc(CC(=O)NC2CCCC2)cc1"
result_value = -0.009


----------
Entries and their activation values follow.
- assay.name: Cholera quorum inducers, V. cholerae BH1578 lux reporter, luminescence, confirmatory dose response (AID 651809)
- experimental.parameters: V. cholerae BH1578 lux reporter, luminescence, 6 h; at 35 µM (top of the series)
Active and inactive are the calls of the source. No rule for the calls is given here.
endpoint: activation

[[record]]
smiles_entry = "COc1ccccc1CC(=O)NC1CCCC1"
result_value = "0.627% (inactive)"

[[record]]
smiles_entry = "CCn1nnnc1NCc1ccccc1"
result_value = "0.115% (inactive)"

[[record]]
smiles_entry = "O=C(Cc1cccc(Cl)c1)NC1CCCC1"
result_value = "0.144% (inactive)"

[[record]]
smiles_entry = "CCn1nnc(NCc2ccccc2)n1"
result_value = "0.35% (inactive)"

[[record]]
smiles_entry = "CN(C(=O)Cc1ccc(-c2ccccc2)cc1)C1CCCC1"
result_value = "0.648% (inactive)"

[[record]]
smiles_entry = "CN(Cc1ccc(N2CCCC2)cc1)c1nnn(C)n1"
result_value = "-0.005% (inactive)"

[[record]]
smiles_entry = "CCn1nnc(NCc2ccc(C(F)(F)F)cc2)n1"
result_value = "-0.033% (inactive)"

[[record]]
smiles_entry = "COc1cccc(CC(=O)NC2CCCC2)c1"
result_value = "-0.014% (inactive)"

[[record]]
smiles_entry = "O=C(Cc1ccccc1C(F)(F)F)NC1CCCC1"
result_value = "0.015% (inactive)"

[[record]]
smiles_entry = "O=C(Cc1ccc(-c2ccccc2)cc1)NCC1CCCC1"
result_value = "0.056% (inactive)"

[[record]]
smiles_entry = "Cc1ccc(CC(=O)NC2CCCC2)cc1"
result_value = "0.967% (inactive)"

[[record]]
smiles_entry = "O=C(Cc1ccc(-c2ccccc2)cc1)N1CCC1"
result_value = "1.77% (inactive)"

[[record]]
smiles_entry = "Cn1nnnc1NCc1ccc(C(F)(F)F)cc1"
result_value = "0.204% (inactive)"

[[record]]
smiles_entry = "CN1CCN(C(=O)Cc2ccc(-c3ccccc3)cc2)CC1"
result_value = "-0.018% (inactive)"

[[record]]
smiles_entry = "CC(C)n1nnc(NCc2ccc(N3CCCC3)cc2)n1"
result_value = "-0.029% (inactive)"

[[record]]
smiles_entry = "O=C(Cc1ccc(-c2ccccc2)cc1)NC1CCNCC1"
result_value = "0.085% (inactive)"

[[record]]
smiles_entry = "CCN(Cc1ccc(N2CCCC2)cc1)c1nnnn1CC"
result_value = "1.22% (inactive)"

[[record]]
smiles_entry = "O=C(Cc1ccc(F)cc1)NC1CCCC1"
result_value = "0.012% (inactive)"

[[record]]
smiles_entry = "O=C(Cc1ccc(OC(F)(F)F)cc1)NC1CCCC1"
result_value = "1.25% (inactive)"

[[record]]
smiles_entry = "CCc1ccc(C(=O)Nc2nnnn2CC)cc1"
result_value = "-0.042% (inactive)"

[[record]]
smiles_entry = "O=C(Cc1cccc(C(F)(F)F)c1)NC1CCCC1"
result_value = "0.024% (inactive)"

[[record]]
smiles_entry = "FC(F)(F)c1ccc(CNc2nn[nH]n2)cc1"
result_value = "-0.017% (inactive)"

[[record]]
smiles_entry = "O=C(Cc1ccc(-c2ccccc2)cc1)N1CCCCC1"
result_value = "-0.022% (inactive)"

[[record]]
smiles_entry = "O=C(Cc1ccc(-c2ccccc2)cc1)NCc1ccccc1"
result_value = "0.004% (inactive)"

[[record]]
smiles_entry = "CN1CCC(NC(=O)Cc2ccc(-c3ccccc3)cc2)CC1"
result_value = "3.34% (inactive)"

[[record]]
smiles_entry = "N#Cc1ccc(CC(=O)NC2CCCC2)cc1"
result_value = "-0.056% (inactive)"

[[record]]
smiles_entry = "O=C(Cc1ccccc1)NC1CCCC1"
result_value = "-0.05% (inactive)"

[[record]]
smiles_entry = "O=C(Cc1ccccc1Cl)NC1CCCC1"
result_value = "0.002% (inactive)"


----------
- assay.name: Cholera quorum inducers, V. cholerae BH1578 lux reporter, luminescence, confirmatory dose response (AID 651809)
- experimental.parameters: V. cholerae BH1578 lux reporter, luminescence, 6 h; at 35 µM (top of the series)
endpoint: activation (%)

[[record]]
compound = "N#Cc1cccc(CC(=O)NC2CCCC2)c1"
result_value = -0.04

[[record]]
compound = "O=C(Cc1ccc(-c2ccccc2)cc1)N1CC(F)(F)C1"
result_value = 1.11

[[record]]
compound = "Cc1cccc(CC(=O)NC2CCCC2)c1"
result_value = 0.44

[[record]]
compound = "CCn1nnnc1NC(=O)c1ccc(N2CCCC2)cc1"
result_value = 0.669

[[record]]
compound = "O=C(O)Cc1ccc(-c2ccccc2)cc1"
result_value = 0.008

[[record]]
compound = "O=C(Cc1ccc(-c2ccccc2)cc1)NC1CCCCC1"
result_value = 10.4

[[record]]
compound = "O=C(Cc1ccc(-c2ccccc2)cc1)N1CCCC1"
result_value = 0.018

[[record]]
compound = "CC(C)n1nnnc1NCc1ccc(N2CCCC2)cc1"
result_value = 133

[[record]]
compound = "O=C(Cc1ccccc1F)NC1CCCC1"
result_value = 0.011

[[record]]
compound = "O=C(Cc1ccccc1I)NC1CCCC1"
result_value = 0.012

[[record]]
compound = "O=C(Cc1ccncc1)NC1CCCC1"
result_value = 0.026

[[record]]
compound = "O=C(Cc1ccc2ccccc2c1)NC1CCCC1"
result_value = 1.41

[[record]]
compound = "Cn1nnc(NCc2ccc(N3CCCC3)cc2)n1"
result_value = 0.034

[[record]]
compound = "CNC(=O)Cc1ccc(-c2ccccc2)cc1"
result_value = 0.578

[[record]]
compound = "O=C(Cc1cccc(-c2ccccc2)c1)NC1CCCC1"
result_value = 18

[[record]]
compound = "CC(C)(C)OC(=O)N1CCC(NC(=O)Cc2ccc(-c3ccccc3)cc2)CC1"
result_value = -0.022

[[record]]
compound = "O=C(Cc1ccc(Cl)cc1)NC1CCCC1"
result_value = 0.645

[[record]]
compound = "O=C(Cc1ccc(-c2ccccc2)cc1)N1CCOCC1"
result_value = 0.215

[[record]]
compound = "O=C(Cc1ccccn1)NC1CCCC1"
result_value = 0.07

[[record]]
compound = "CC(C)c1ccc(CNc2nnn(C)n2)cc1"
result_value = 0.033

[[record]]
compound = "O=C(Cc1ccc(-c2ccccc2)cc1)N1CCC(F)(F)CC1"
result_value = -0.007

[[record]]
compound = "c1ccc(CNc2nn[nH]n2)cc1"
result_value = 0.04

[[record]]
compound = "Cn1nnnc1NCc1ccccc1"
result_value = -0.011

[[record]]
compound = "c1ccc(-c2ccc(CCNC3CCCC3)cc2)cc1"
result_value = -0.024

[[record]]
compound = "O=C(Cc1ccc(-c2ccccc2)cc1)Nc1ccccc1"
result_value = 0.038

[[record]]
compound = "CC(C(=O)NC1CCCC1)c1ccc(-c2ccccc2)cc1 (stereo not drawn)"
result_value = -0.069

[[record]]
compound = "O=C(Cc1ccc(-c2ccncc2)cc1)NC1CCCC1"
result_value = 1.61

[[record]]
compound = "CN(C)C(=O)Cc1ccc(-c2ccccc2)cc1"
result_value = 0.185


----------
Measured activation by item
- assay.name: Cholera quorum inducers, V. cholerae BH1578 lux reporter, luminescence, confirmatory dose response (AID 651809)
- experimental.parameters: V. cholerae BH1578 lux reporter, luminescence, 6 h; at 35 µM (top of the series)
endpoint: activation (%)

[[record]]
smiles_entry = "CC(C)c1ccc(CNc2nn[nH]n2)cc1"
endpoint = "activation"
result_value = 0.032

[[record]]
smiles_entry = "CS(=O)(=O)c1cccc(CC(=O)NC2CCCC2)c1"
endpoint = "activation"
result_value = 0.049

[[record]]
smiles_entry = "O=C(Cc1ccccc1-c1ccccc1)NC1CCCC1"
endpoint = "activation"
result_value = -0.016

[[record]]
smiles_entry = "O=C(Cc1cccc(OC(F)(F)F)c1)NC1CCCC1"
endpoint = "activation"
result_value = 1.1

[[record]]
smiles_entry = "O=C(Cc1ccc(C(F)(F)F)cc1)NC1CCCC1"
endpoint = "activation"
result_value = 0.008

[[record]]
smiles_entry = "O=C(Nc1ccc(-c2ccccc2)cc1)NC1CCCC1"
endpoint = "activation"
result_value = 0.069

[[record]]
smiles_entry = "CCn1nnnc1NCc1cccn1C"
endpoint = "activation"
result_value = -0.015

[[record]]
smiles_entry = "O=C(NC1CCCC1)Oc1ccc(-c2ccccc2)cc1"
endpoint = "activation"
result_value = -0.045

[[record]]
smiles_entry = "CN(Cc1ccc(N2CCCC2)cc1)c1nnnn1C"
endpoint = "activation"
result_value = 14.6

[[record]]
smiles_entry = "O=C(Cc1cccnc1)NC1CCCC1"
endpoint = "activation"
result_value = -0.043

[[record]]
smiles_entry = "Cn1nnc(NCc2ccc(C(F)(F)F)cc2)n1"
endpoint = "activation"
result_value = 1.48

[[record]]
smiles_entry = "O=C(CCc1ccc(-c2ccccc2)cc1)NC1CCCC1"
endpoint = "activation"
result_value = -0.057

[[record]]
smiles_entry = "c1cc(N2CCCC2)ccc1CNc1nn[nH]n1"
endpoint = "activation"
result_value = -0.038

